// data source = paper PMC5286460

assay: UV–vis absorption and fluorescence spectroscopy; format: physicochemical; details: pH 7.4 phosphate buffer, 10% DMSO
Quantity Kind: Stokes shift (nm)
Numbers only, in nm.

| Smiles Text | Quantity Kind | Data Value |
| --- | --- | --- |
| COC(=O)c1ccccc1C1=c2cc3c4c(c2Oc2c1ccc1cccc(OC)c21)CCC[N+]=4CCC3.[Cl-] | Stokes shift | 40 |
| COC(=O)c1ccccc1-c1c2ccc(=[N+](C)C)cc-2oc2c1ccc1cccc(OC)c12.[Cl-] | Stokes shift | 38 |
| COC(=O)c1ccccc1C1=c2cc3c4c(c2Oc2c1ccc1cccc(N)c21)CCC[N+]=4CCC3.[Cl-] | Stokes shift | 139 |

Then this compound:
Prompt line: Query (compound): COC(=O)c1ccccc1-c1c2ccc(=N)cc-2oc2c1ccc1cccc(N)c12.Cl ; field requested: Stokes shift
Response line: 184
